Target: T1, rMcrA-S (UniProt P24200 1-277)
T1 sequence: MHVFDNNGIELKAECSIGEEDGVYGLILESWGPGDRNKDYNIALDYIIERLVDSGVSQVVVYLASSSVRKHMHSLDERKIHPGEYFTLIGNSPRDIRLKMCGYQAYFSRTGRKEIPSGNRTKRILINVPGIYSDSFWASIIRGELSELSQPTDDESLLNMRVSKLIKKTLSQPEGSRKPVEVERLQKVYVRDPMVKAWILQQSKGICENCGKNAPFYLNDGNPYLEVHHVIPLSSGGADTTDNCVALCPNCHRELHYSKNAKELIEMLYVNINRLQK
Assay: EMSA
measurement type: binding result

unmethylated cassette (oligos 7/8) (dsDNA) DNA 1: GCCTTCAGCGCCGGCGGATCCAGT DNA 2: ACTGGATCCGCCGGCGCTGAAGGC	no binding
C/A mismatch cassette (dsDNA, m5C12 in strand 1 only) DNA 1: GCCTTCAGCGCCGGCGGATCCAGT DNA 2: ACTGGATCCGCCAGCGCTGAAGGC	no binding
C/G hemimethylated HpaII cassette (dsDNA, m5C12 in strand 1 only) DNA 1: GCCTTCAGCGCCGGCGGATCCAGT DNA 2: ACTGGATCCGCCGGCGCTGAAGGC	binds
CGT cassette (dsDNA, m5C9 strand 1, m5C15 strand 2 (M.SssI)) DNA 1: CCCTCTGACGTAGGAGGCTCCTGC DNA 2: GCAGGAGCCTCCTACGTCAGAGGG	no binding
CGC cassette (dsDNA, m5C9 strand 1, m5C15 strand 2 (M.SssI)) DNA 1: CCCTCTGACGCAGGAGGCTCCTGC DNA 2: GCAGGAGCCTCCTGCGTCAGAGGG	no binding
